System: HT-29 colorectal adenocarcinoma cell line
experimental_protocol: DIMSCAN cytotoxicity, fenretinide + L-threo-sphinganines 3:1 (Example B10)
Assay type: cell-based, human
test_conditions: 4-HPR 3 μM + L-threo-sphinganine 1 μM, 96 h
Output rule met for records whose CI (Combination Index) is lower than 1, rule not met for records at or above 1.

>>> classification("CCCCCCCCC[C@H](O)[C@@H](N)CO [C12]")
"rule not met"

Enquiry: Determine whether this compound shows CI (Combination Index) lower than 1 (ties excluded): CCCCCCCCCCCCCCCCC[C@H](O)[C@@H](N)CO [C20, (2S,3S)-2-amino-1,3-icosanediol]
Return: rule met

Enquiry: Please indicate whether the reported CI (Combination Index) of CCCCCCCCCCC[C@H](O)[C@@H](N)CO [C14] is strictly below 1.
Return: rule not met

Enquiry: Quick check: does CCCCCCCCCCCCCCCCCC[C@H](O)[C@@H](N)CO [C21] have CI (Combination Index) under 1?
Return: rule not met

Enquiry: Confirm or reject: CI (Combination Index) of CCCCCCCCCCCCCCC[C@H](O)[C@@H](N)CO [C18, (2S,3S)-2-amino-1,3-octadecanediol, reference compound] lies strictly below 1
Return: rule met

Enquiry: Just wondering, is CI (Combination Index) of CCCCCCCCCCCC[C@H](O)[C@@H](N)CO [C15] below 1?
Return: rule met

Enquiry: Determine whether this compound shows CI (Combination Index) lower than 1 (ties excluded): CCCCCCCCCCCCCC[C@H](O)[C@@H](N)CO [C17, (2S,3S)-2-amino-1,3-heptadecanediol]
Return: rule met
